assayTarget: T1, recombinant human FGF23 (R179Q) (human, UniProt Q9GZV9 25-251)
T1 construct: also called rhFGF23(R179Q); hFGF23(R179Q)
T1 sequence (looked up): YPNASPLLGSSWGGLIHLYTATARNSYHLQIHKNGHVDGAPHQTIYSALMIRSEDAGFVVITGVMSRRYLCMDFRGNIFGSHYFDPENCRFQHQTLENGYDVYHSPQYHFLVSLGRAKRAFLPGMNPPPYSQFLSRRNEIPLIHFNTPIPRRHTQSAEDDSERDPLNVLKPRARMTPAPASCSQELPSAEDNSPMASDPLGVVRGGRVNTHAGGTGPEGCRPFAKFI
methodDescription: SPR, antibody captured on hIgG chip, rhFGF23(R179Q) analyte
quantityKind: Kd (pM)
Provide the reading as a plain figure in pM.

Worked examples, 2 binders total:
Kd reported for this binder UGX126 (antibody, human IgG1, kappa, V domains shown, also called LC:S52D; S52D) VH: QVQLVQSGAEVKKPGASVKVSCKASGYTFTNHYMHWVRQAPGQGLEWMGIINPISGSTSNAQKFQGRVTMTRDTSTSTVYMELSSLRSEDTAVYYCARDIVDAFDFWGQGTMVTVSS VL: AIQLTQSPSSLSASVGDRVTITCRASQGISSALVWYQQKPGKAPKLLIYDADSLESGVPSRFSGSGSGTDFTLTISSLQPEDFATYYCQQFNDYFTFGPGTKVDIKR : 12.4

Kd reported for this binder UGX205 (antibody, human IgG1, kappa, V domains shown, also called HC:S59E, LC:Y94D; S59E/Y94D) VH: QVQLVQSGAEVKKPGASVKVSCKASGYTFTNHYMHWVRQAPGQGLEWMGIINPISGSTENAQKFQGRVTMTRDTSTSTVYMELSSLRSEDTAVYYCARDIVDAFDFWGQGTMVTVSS VL: AIQLTQSPSSLSASVGDRVTITCRASQGISSALVWYQQKPGKAPKLLIYDASSLESGVPSRFSGSGSGTDFTLTISSLQPEDFATYYCQQFNDDFTFGPGTKVDIKR : 4.07

Consider the additional binder presented here.
Kd reported for this binder UGX144 (antibody, human IgG1, kappa, V domains shown, also called LC:Y94D; Y94D) VH: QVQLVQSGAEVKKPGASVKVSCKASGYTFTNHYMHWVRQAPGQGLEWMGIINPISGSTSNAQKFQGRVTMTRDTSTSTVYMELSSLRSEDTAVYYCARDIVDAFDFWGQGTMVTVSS VL: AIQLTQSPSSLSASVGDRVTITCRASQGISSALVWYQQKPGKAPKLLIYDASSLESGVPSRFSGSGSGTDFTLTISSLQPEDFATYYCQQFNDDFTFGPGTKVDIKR : 5.77
